# Tested on: modified luciferase
# experiment_summary: Luciferase expression in liver, lung, spleen and femur 6 hours after intravenous administration to mice
# Assay type: in vivo
# study_conditions: lung, 6 hours after intravenous 0.5 mpk, mice
In this section we review reported Total Flux, Lung values for a set of compounds.
measured_parameter: Total Flux, Lung

{"compound": "CCCCC/C=C\\C/C=C\\CCCCCCCCN(CCO)CCCCCCCC(=O)OCCCCCCCCC", "assay_result": "8.91E+05"}
{"compound": "CCCCCCCCC(CCCCCCCC)OC(=O)CCCCCCCN(CCO)CCCCCC(=O)OC(CCCCCCCC)C1CC1 (stereo not shown)", "assay_result": "2.16E+07"}
{"compound": "CCCCCCCCC(CCCCCCCC)OC(=O)CCCCCCCN(CCO)CCCCCC", "assay_result": "1.89E+06"}
{"compound": "CCCCCCCCC(CCCCCCCC)OC(=O)CCCCCCCN(CCO)CCCC(=O)OCCCCCC", "assay_result": "2.47E+07"}
{"compound": "CCCCCCCCCOC(=O)CCCCCCCN(CCO)CCCCCCCC(=O)OC(CCCCC)CCCCCCCC (stereo not shown)", "assay_result": "2.92E+07"}
{"compound": "CCCCCCCCCOC(=O)CCCCCCCN(CCO)CCCCCCCC(=O)OC(CCCC)CCCC", "assay_result": "3.18E+04"}
{"compound": "CCCCCCCCCOC(=O)CCCCCCCN(CCO)CCN(CCO)CCCCCCCC(=O)OC(CCCCCCCC)CCCCCCCC", "assay_result": "2.17E+05"}
{"compound": "CCCCCCCCCOC(=O)CCCCCCCN(CCO)CCCCCCCC(=O)N(CCCCCCCC)CCCCCCCC", "assay_result": "4.81E+06"}
{"compound": "CCCCCCCCCOC(=O)CCCCCCCN(CCCCCCCC(=O)OC(CCCCCCCC)CCCCCCCC)CC(O)CC (stereo not shown)", "assay_result": "2.21E+05"}
{"compound": "CCCC/C=C\\CCC(CC/C=C\\CCCC)OC(=O)CCCCCCCN(CCO)CCCCCCCC(=O)OCCCCCCCCC", "assay_result": "6.25E+06"}
{"compound": "CCCCCCCCCOC(=O)CCCCCCCN(CCCCCCCC(=O)OC(CCCCCCCC)CCCCCCCC)CC(C)O (stereo not shown)", "assay_result": "8.85E+05"}
{"compound": "CCCCCCCCC(CCCCCCCC)OC(=O)CCCCCCCN(CCO)CCCCCCCC(=O)OC(CCCCCCCC)CCCCCCCC", "assay_result": "9.83E+05"}
{"compound": "CCCCCCCCCOC(=O)CCCCCCCN(CCO)CCCCCCCCCC(=O)OC(CCCCCC)CCCCCC", "assay_result": "6.73E+06"}
{"compound": "CCCCCCCCCOC(=O)CCCCCCCN(CCO)CCCCCCCCCOP(=O)(OCCCCCCCCC)OCCCCCCCCC", "assay_result": "5.26E+06"}
{"compound": "CCCCCCCCCOC(=O)CCCCCCCN(CCCCCCCC(=O)OC(CCCCCCCC)CCCCCCCC)CCN(C)C", "assay_result": "4.74E+06"}
{"compound": "CCCCCCCCCOC(=O)CCCCCCCN(CCCCCCCC(=O)OC(CCCCCCCC)CCCCCCCC)CCOCCN(C)C", "assay_result": "9.95E+04"}
